Attribution: paper PMC8317962

Quick list: AChE rp (relative inhibition potency) per entry.
- Subject of test: acetylcholinesterase from Electrophorus electricus (Electrophorus electricus)
- Construct: purchased Sigma Aldrich type V-S
- Sequence (O42275 24-633): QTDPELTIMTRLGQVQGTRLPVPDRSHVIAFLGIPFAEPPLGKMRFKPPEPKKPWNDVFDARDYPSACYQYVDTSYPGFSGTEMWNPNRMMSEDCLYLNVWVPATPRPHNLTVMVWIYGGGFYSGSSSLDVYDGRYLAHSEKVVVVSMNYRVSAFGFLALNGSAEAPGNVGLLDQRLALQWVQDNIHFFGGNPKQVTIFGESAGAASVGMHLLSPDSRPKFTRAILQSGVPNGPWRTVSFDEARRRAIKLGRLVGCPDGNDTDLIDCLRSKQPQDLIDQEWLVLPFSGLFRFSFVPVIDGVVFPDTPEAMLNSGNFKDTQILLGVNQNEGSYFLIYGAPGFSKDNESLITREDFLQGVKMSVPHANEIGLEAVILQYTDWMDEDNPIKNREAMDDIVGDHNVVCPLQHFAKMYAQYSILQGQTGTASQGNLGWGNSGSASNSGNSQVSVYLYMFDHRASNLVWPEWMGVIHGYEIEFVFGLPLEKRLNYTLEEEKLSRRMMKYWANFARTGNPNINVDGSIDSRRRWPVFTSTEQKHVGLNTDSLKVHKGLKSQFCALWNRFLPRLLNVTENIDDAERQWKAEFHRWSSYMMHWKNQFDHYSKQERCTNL
- Assay method text: biochemical
- Type: biochemical
- Experimental parameters: rp = IC50 (mono-tacrine)/IC50 (tetra-tacrine)
Hey, just send me the number, nothing else.

CO[C@H]1O[C@H](COCc2cn(CCCCCCCCNc3c4c(nc5ccccc35)CCCC4)nn2)[C@@H](OCc2cn(CCCCCCCCNc3c4c(nc5ccccc35)CCCC4)nn2)[C@H](OCc2cn(CCCCCCCCNc3c4c(nc5ccccc35)CCCC4)nn2)[C@H]1OCc1cn(CCCCCCCCNc2c3c(nc4ccccc24)CCCC3)nn1
0.03
CO[C@H]1O[C@H](COCc2cn(CCNc3c4c(nc5ccccc35)CCCC4)nn2)[C@@H](OCc2cn(CCNc3c4c(nc5ccccc35)CCCC4)nn2)[C@H](OCc2cn(CCNc3c4c(nc5ccccc35)CCCC4)nn2)[C@H]1OCc1cn(CCNc2c3c(nc4ccccc24)CCCC3)nn1
12.9
CO[C@H]1O[C@H](COCc2cn(CCCNc3c4c(nc5ccccc35)CCCC4)nn2)[C@@H](OCc2cn(CCCNc3c4c(nc5ccccc35)CCCC4)nn2)[C@H](OCc2cn(CCCNc3c4c(nc5ccccc35)CCCC4)nn2)[C@H]1OCc1cn(CCCNc2c3c(nc4ccccc24)CCCC3)nn1
5.8

Then there is this compound:
For the compound CO[C@H]1O[C@H](COCc2cn(CCCCCCNc3c4c(nc5ccccc35)CCCC4)nn2)[C@@H](OCc2cn(CCCCCCNc3c4c(nc5ccccc35)CCCC4)nn2)[C@H](OCc2cn(CCCCCCNc3c4c(nc5ccccc35)CCCC4)nn2)[C@H]1OCc1cn(CCCCCCNc2c3c(nc4ccccc24)CCCC3)nn1 , report AChE rp (relative inhibition potency). 1.0
